Target: Voltage-gated inwardly rectifying potassium channel KCNH2 (Homo sapiens)
Test: qHTS for Inhibitors of KCHN2 3.1: Wildtype qHTS; note: % is set by controls: 0 for no effect and ±100 for the full control effect
Settings: U2OS, BacMam KCNH2, thallium flux FluxOr; at 1.84 µM; stronger effect = lower value
The whole screen tested about 340,000 compounds, of which about 1,300 (0.38%) were called active. The entries come from a sample that favours actives as a whole.
Provide the recorded activity change for the entries that follow.
Numbers only, in %.

INSERT INTO results (compound, system_name, scale_unit, readout_number) VALUES
  ('CC(=NCC1CCCO1)c1c(O)n(-c2ccccc2)c(=O)[nH]c1=O (configuration not stated)', 'Voltage-gated inwardly rectifying potassium channel KCNH2 (Homo sapiens)', '%', -12.8);

Each of the following entries comes with a recorded value; kindly state activity change for each.
1. CC(Cc1ccccc1)NCCC(c1ccccc1)c1ccccc1 (configuration not stated)
2. O=Cc1cn(Cc2ccc(F)cc2Cl)c2ccccc12
3. O=C1NC(=O)C(CCOc2ccccc2)(CCc2ccccc2)C(=O)N1
4. NCCc1ccc(S(=O)(=O)F)cc1
5. CCOC(=O)C1(Cc2ccc(Cl)cc2)CCN(C(C)CCn2cccn2)CC1 (configuration not stated)

### Response
1. -106
2. 0.945
3. -6.81
4. -7.95
5. -90.9

### Prompt Entry `CCOC(=O)C1(CCc2ccccc2)CCN(Cc2ccco2)CC1` has what activity change?
### Response -42.5
